In this section, each of the compounds is paired with its reported viability at 24 h, 100 µg/mL.
- Assay Text: Annexin V-FITC/propidium iodide apoptosis analysis by flow cytometry
- Assay type: cell-based
- Details: human, HCT8 cells, Annexin V-FITC/PI, read-out: viable cells (Q4)
Assay Endpoint: viability at 24 h, 100 µg/mL (%)

>  <Compound>
O=C(Nc1ccc(F)cc1)ON=C1c2ccccc2COc2ccccc21 [Compound 7b]

>  <Reported>
84.3

$$$$
>  <Compound>
Cc1cccc(NC(=O)ON=C2c3ccccc3COc3ccccc32)c1 [Compound 7a]

>  <Reported>
84.2

$$$$
>  <Compound>
O=C(Nc1cccc(Cl)c1)ON=C1c2ccccc2COc2ccccc21 [Compound 7c]

>  <Reported>
89.8

$$$$
>  <Compound>
O=C(Nc1cccc(C(F)(F)F)c1)ON=C1c2ccccc2COc2ccccc21 [Compound 7f]

>  <Reported>
14.8

$$$$
